Source of measurements: ChEMBL document CHEMBL1140647

Biological target: Beta-3 adrenergic receptor (Homo sapiens, UniProt P13945)
Sequence (P13945 whole entry): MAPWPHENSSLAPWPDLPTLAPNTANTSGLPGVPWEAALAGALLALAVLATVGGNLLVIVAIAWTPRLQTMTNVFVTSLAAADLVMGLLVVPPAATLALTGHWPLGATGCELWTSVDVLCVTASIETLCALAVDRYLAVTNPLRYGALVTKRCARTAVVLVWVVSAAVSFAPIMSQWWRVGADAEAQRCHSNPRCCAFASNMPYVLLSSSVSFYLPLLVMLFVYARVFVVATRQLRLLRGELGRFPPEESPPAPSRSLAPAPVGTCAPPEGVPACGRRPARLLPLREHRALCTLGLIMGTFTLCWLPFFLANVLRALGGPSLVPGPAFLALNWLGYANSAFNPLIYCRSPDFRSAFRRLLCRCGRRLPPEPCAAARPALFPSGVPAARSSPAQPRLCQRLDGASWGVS
Test: Agonist activity at human beta-3 adrenergic receptor expressed in CHO cells assessed as cAMP accumulation
Measurement Name: EC50 (nM)
Write down the numeric answer in nM and omit the unit.

Examples with their reported EC50 follow.
Smiles Record: C[C@H](CNc1cccc(-c2occc2C(=O)O)c1)NC[C@H](O)c1cccc(Cl)c1
EC50 [nM]: 0.251

Smiles Record: C[C@H](CNc1ccc(-c2occc2C(=O)O)cc1)NC[C@H](O)c1cccc(Cl)c1
EC50 [nM]: 0.316

Smiles Record: O=C(O)c1ccsc1-c1cccc(NCCNC[C@H](O)c2cccc(Cl)c2)c1
EC50 [nM]: 1.26

Smiles Record: C[C@H](CNc1ccc(-c2sccc2C(=O)O)cc1)NC[C@H](O)c1cccc(Cl)c1
EC50 [nM]: 0.398

Smiles Record: C[C@H](CNc1ccc(-c2nc(C(=O)O)cs2)cc1)NC[C@H](O)c1cccc(Cl)c1
EC50 [nM]: 6.31

Smiles Record: C[C@H](CNc1ccc(-c2nc(C(=O)O)co2)cc1)NC[C@H](O)c1cccc(Cl)c1
EC50 [nM]: 15.8

# EC50 (compound: C[C@H](CNc1ccc(-c2ocnc2C(=O)O)cc1)NC[C@H](O)c1cccc(Cl)c1 ) is 1.26

# EC50 (compound: C[C@H](CNc1cccc(-c2csc(C(=O)O)n2)c1)NC[C@H](O)c1cccc(Cl)c1 ) is 2

# EC50 (compound: C[C@H](CNc1cccc(-c2sccc2C(=O)O)c1)NC[C@H](O)c1cccc(Cl)c1 ) is 0.0631
